# Test system: PPARg DBDmut IVT, anti-PPARg (DBD mutation: PPARg1 K132A/R137A, NR concentration 270 nM)
# assay_comment: PBM binding z-score (relative to random genomic background probes); higher = stronger binding; sequences stand for … in GC…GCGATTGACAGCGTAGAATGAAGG

# query_sequence, assayed_target, PBM binding z-score
rows = [
    ("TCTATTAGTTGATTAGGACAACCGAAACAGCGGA", "PPARg DBDmut IVT, anti-PPARg (DBD mutation: PPARg1 K132A/R137A, NR concentration 270 nM)", 1.57),
    ("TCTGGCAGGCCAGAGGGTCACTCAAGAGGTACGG", "PPARg DBDmut IVT, anti-PPARg (DBD mutation: PPARg1 K132A/R137A, NR concentration 270 nM)", -0.915),
    ("ACAGACAGGTGATGAAGGTCACTCAGGCTATCAT", "PPARg DBDmut IVT, anti-PPARg (DBD mutation: PPARg1 K132A/R137A, NR concentration 270 nM)", 0.177),
    ("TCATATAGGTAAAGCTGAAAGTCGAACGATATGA", "PPARg DBDmut IVT, anti-PPARg (DBD mutation: PPARg1 K132A/R137A, NR concentration 270 nM)", 1.09),
    ("TAATATAGGTAAACAGGTGAAAGTCCGTAAGTTA", "PPARg DBDmut IVT, anti-PPARg (DBD mutation: PPARg1 K132A/R137A, NR concentration 270 nM)", 1.8),
    ("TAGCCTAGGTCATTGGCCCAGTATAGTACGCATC", "PPARg DBDmut IVT, anti-PPARg (DBD mutation: PPARg1 K132A/R137A, NR concentration 270 nM)", -0.598),
    ("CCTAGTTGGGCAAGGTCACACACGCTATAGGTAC", "PPARg DBDmut IVT, anti-PPARg (DBD mutation: PPARg1 K132A/R137A, NR concentration 270 nM)", 0.558),
    ("GCGACTGGGGCATCCGCAGGTTACCATAACTTAA", "PPARg DBDmut IVT, anti-PPARg (DBD mutation: PPARg1 K132A/R137A, NR concentration 270 nM)", -0.898),
    ("ACTAATAGTTGACTTAGGGCAACCGATACGACGC", "PPARg DBDmut IVT, anti-PPARg (DBD mutation: PPARg1 K132A/R137A, NR concentration 270 nM)", 0.863),
    ("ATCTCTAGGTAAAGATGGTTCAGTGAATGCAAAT", "PPARg DBDmut IVT, anti-PPARg (DBD mutation: PPARg1 K132A/R137A, NR concentration 270 nM)", 0.863),
    ("CGTCCAAGGCCAGCAGGTCAGTGAAAGCGACGTG", "PPARg DBDmut IVT, anti-PPARg (DBD mutation: PPARg1 K132A/R137A, NR concentration 270 nM)", -0.983),
    ("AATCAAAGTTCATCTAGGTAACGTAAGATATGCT", "PPARg DBDmut IVT, anti-PPARg (DBD mutation: PPARg1 K132A/R137A, NR concentration 270 nM)", 1.11),
    ("CTCGAAAGGTCCGTTGAGGTGAGTATACGGATAA", "PPARg DBDmut IVT, anti-PPARg (DBD mutation: PPARg1 K132A/R137A, NR concentration 270 nM)", -0.18),
    ("TGAATGAGGTTATAAGATTAGGGAACGTTGCAAA", "PPARg DBDmut IVT, anti-PPARg (DBD mutation: PPARg1 K132A/R137A, NR concentration 270 nM)", 0.168),
    ("GTACCAAGGGGAATAGGTCGTTGATGAGTAGGCG", "PPARg DBDmut IVT, anti-PPARg (DBD mutation: PPARg1 K132A/R137A, NR concentration 270 nM)", -0.377),
    ("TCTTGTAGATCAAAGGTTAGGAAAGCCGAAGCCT", "PPARg DBDmut IVT, anti-PPARg (DBD mutation: PPARg1 K132A/R137A, NR concentration 270 nM)", 0.103),
    ("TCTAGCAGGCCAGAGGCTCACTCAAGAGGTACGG", "PPARg DBDmut IVT, anti-PPARg (DBD mutation: PPARg1 K132A/R137A, NR concentration 270 nM)", -2.42),
    ("ATCTCTATGTAAAGTTCAGTGAAAGATCGATAGA", "PPARg DBDmut IVT, anti-PPARg (DBD mutation: PPARg1 K132A/R137A, NR concentration 270 nM)", 1.04),
    ("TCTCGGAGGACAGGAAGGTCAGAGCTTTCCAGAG", "PPARg DBDmut IVT, anti-PPARg (DBD mutation: PPARg1 K132A/R137A, NR concentration 270 nM)", -1.7),
    ("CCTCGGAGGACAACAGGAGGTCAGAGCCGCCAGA", "PPARg DBDmut IVT, anti-PPARg (DBD mutation: PPARg1 K132A/R137A, NR concentration 270 nM)", -1.45),
    ("ATTACAGGGTCATCGTAGGCCAGAGTACGCACAG", "PPARg DBDmut IVT, anti-PPARg (DBD mutation: PPARg1 K132A/R137A, NR concentration 270 nM)", 2.49),
    ("ACTAGCTGGCCAAGTTTGGGTCACTCAAACAAAG", "PPARg DBDmut IVT, anti-PPARg (DBD mutation: PPARg1 K132A/R137A, NR concentration 270 nM)", -0.239),
    ("CGAACTAGGTCATTGACAGGACAGTGAATAGTAA", "PPARg DBDmut IVT, anti-PPARg (DBD mutation: PPARg1 K132A/R137A, NR concentration 270 nM)", 1.53),
    ("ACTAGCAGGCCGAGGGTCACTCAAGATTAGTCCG", "PPARg DBDmut IVT, anti-PPARg (DBD mutation: PPARg1 K132A/R137A, NR concentration 270 nM)", -0.885),
    ("TGTCAAAGTTCAAAGCTAACGTAAGTATCCACAC", "PPARg DBDmut IVT, anti-PPARg (DBD mutation: PPARg1 K132A/R137A, NR concentration 270 nM)", 1.18),
    ("CCGACTGGGGCATAAGGTTACCATCAGCCAGCCC", "PPARg DBDmut IVT, anti-PPARg (DBD mutation: PPARg1 K132A/R137A, NR concentration 270 nM)", -1.26),
    ("TCGAGTAGGTTGGGGGCATTCAGAATGGCGTCGA", "PPARg DBDmut IVT, anti-PPARg (DBD mutation: PPARg1 K132A/R137A, NR concentration 270 nM)", 5.62),
    ("TCGAGTAGGTTAGTCGGGGCATTAAGCCAACATA", "PPARg DBDmut IVT, anti-PPARg (DBD mutation: PPARg1 K132A/R137A, NR concentration 270 nM)", 0.127),
    ("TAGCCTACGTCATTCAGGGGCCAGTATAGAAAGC", "PPARg DBDmut IVT, anti-PPARg (DBD mutation: PPARg1 K132A/R137A, NR concentration 270 nM)", 0.371),
    ("CCTATTGGGCCACGAAAGGTCATTGATTCAGTGA", "PPARg DBDmut IVT, anti-PPARg (DBD mutation: PPARg1 K132A/R137A, NR concentration 270 nM)", -0.271),
    ("CGTCCAAGGTCAATGCTAGTTCAGTGAAAGCATT", "PPARg DBDmut IVT, anti-PPARg (DBD mutation: PPARg1 K132A/R137A, NR concentration 270 nM)", 0.145),
    ("GCTGCTAGGTCAGGTTGGTCCGCTAACGGGTACG", "PPARg DBDmut IVT, anti-PPARg (DBD mutation: PPARg1 K132A/R137A, NR concentration 270 nM)", -0.237),
    ("TCTATTAGTTGATTAGGTCAACCGAAACAGCGGA", "PPARg DBDmut IVT, anti-PPARg (DBD mutation: PPARg1 K132A/R137A, NR concentration 270 nM)", 1.8),
    ("TCAGACAGGTGAATGTAACTCAGGTACGCAGTCG", "PPARg DBDmut IVT, anti-PPARg (DBD mutation: PPARg1 K132A/R137A, NR concentration 270 nM)", -0.0774),
    ("CGTCCAAGGTCAGCAGGGCAGTGAAAGCGACGTG", "PPARg DBDmut IVT, anti-PPARg (DBD mutation: PPARg1 K132A/R137A, NR concentration 270 nM)", -1.04),
    ("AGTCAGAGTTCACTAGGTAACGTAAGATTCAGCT", "PPARg DBDmut IVT, anti-PPARg (DBD mutation: PPARg1 K132A/R137A, NR concentration 270 nM)", 0.611),
    ("AATACAGGGTCACTCGGCCAGAGTAGGTACGAAT", "PPARg DBDmut IVT, anti-PPARg (DBD mutation: PPARg1 K132A/R137A, NR concentration 270 nM)", 1.63),
    ("ATATGTAGGTTAGCTTGGGTCATTCAGACTAGGC", "PPARg DBDmut IVT, anti-PPARg (DBD mutation: PPARg1 K132A/R137A, NR concentration 270 nM)", 1.95),
    ("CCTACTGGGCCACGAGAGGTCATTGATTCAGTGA", "PPARg DBDmut IVT, anti-PPARg (DBD mutation: PPARg1 K132A/R137A, NR concentration 270 nM)", -0.977),
    ("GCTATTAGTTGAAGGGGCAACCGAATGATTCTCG", "PPARg DBDmut IVT, anti-PPARg (DBD mutation: PPARg1 K132A/R137A, NR concentration 270 nM)", 0.191),
    ("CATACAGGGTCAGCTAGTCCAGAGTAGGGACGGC", "PPARg DBDmut IVT, anti-PPARg (DBD mutation: PPARg1 K132A/R137A, NR concentration 270 nM)", 0.108),
    ("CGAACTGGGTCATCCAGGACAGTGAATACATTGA", "PPARg DBDmut IVT, anti-PPARg (DBD mutation: PPARg1 K132A/R137A, NR concentration 270 nM)", 4.27),
    ("TTACCAAGGTGAAAGGGCGTTGATGCACGCCTTG", "PPARg DBDmut IVT, anti-PPARg (DBD mutation: PPARg1 K132A/R137A, NR concentration 270 nM)", 0.204),
    ("TCTAGTTGGCCAAAGGTCACACACTCGAAATGCG", "PPARg DBDmut IVT, anti-PPARg (DBD mutation: PPARg1 K132A/R137A, NR concentration 270 nM)", 0.877),
    ("CCTGCTAGGTCAATGGGCAGCTAAAGCAGCTCGC", "PPARg DBDmut IVT, anti-PPARg (DBD mutation: PPARg1 K132A/R137A, NR concentration 270 nM)", -1.02),
    ("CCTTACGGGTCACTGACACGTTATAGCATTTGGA", "PPARg DBDmut IVT, anti-PPARg (DBD mutation: PPARg1 K132A/R137A, NR concentration 270 nM)", 0.499),
    ("GGGACGAGGGCAAAGTTGATAGCATCTGTCGACG", "PPARg DBDmut IVT, anti-PPARg (DBD mutation: PPARg1 K132A/R137A, NR concentration 270 nM)", 0.748),
    ("CCTACCGGGCCAAAGGTCATTGATTCCAATGCTC", "PPARg DBDmut IVT, anti-PPARg (DBD mutation: PPARg1 K132A/R137A, NR concentration 270 nM)", -1.68),
    ("TCGTGTAGGTTACCAATGGGGCATTCAGCTTTCT", "PPARg DBDmut IVT, anti-PPARg (DBD mutation: PPARg1 K132A/R137A, NR concentration 270 nM)", 0.154),
    ("GTACCAAGGTGTATAGGTCGTTGATGAGTAGGCG", "PPARg DBDmut IVT, anti-PPARg (DBD mutation: PPARg1 K132A/R137A, NR concentration 270 nM)", 0.342),
    ("CCTAGTTGGTTAAGGTCACACACGCTATAGGTAC", "PPARg DBDmut IVT, anti-PPARg (DBD mutation: PPARg1 K132A/R137A, NR concentration 270 nM)", 1.66),
]
